MIC, E. coli TEM5 3739E: measured values
Give me the value, and tack the unit on after it.

- molecule: "CC(C)(O/N=C(\\C(=O)N[C@@H]1C(=O)N2C(C(=O)[O-])=C(C[n+]3ccccc3)CS[C@H]12)c1csc(N)n1)C(=O)O [CAZ, Ceftazidime, reference compound]"
  test-target: "E. coli TEM5 3739E"
  MIC: "8 µg/mL"
- molecule: "Cc1c(N)nc(SCC2=C(C(=O)[O-])N3C(=O)C(NC(=O)/C(=N\\OC(C(=O)O)c4ccc(O)c(O)c4)c4csc(N)n4)[C@H]3SC2)[n+](N)c1N (stereo partly shown)"
  test-target: "E. coli TEM5 3739E"
  MIC: "0.25 µg/mL"
- molecule: "C[n+]1ccc(N)nc1SCC1=C(C(=O)[O-])N2C(=O)C(NC(=O)/C(=N\\OC(C(=O)O)c3ccc(O)c(O)c3)c3csc(N)n3)[C@H]2SC1 (stereo partly shown)"
  test-target: "E. coli TEM5 3739E"
  MIC: "0.5 µg/mL"
- molecule: "Nc1cc[n+](N)c(SCC2=C(C(=O)[O-])N3C(=O)C(NC(=O)C(=NOC(C(=O)O)c4ccc(O)c(O)c4)c4csc(N)n4)C3SC2)n1 (stereo not shown)"
  test-target: "E. coli TEM5 3739E"
  MIC: "0.5 µg/mL"
- molecule: "Nc1nc(C(=NOC(C(=O)O)c2ccc(O)c(O)c2)C(=O)NC2C(=O)N3C(C(=O)[O-])=C(CSc4nc(N)c5c([n+]4N)CCC5)CSC23)cs1 (stereo not shown)"
  test-target: "E. coli TEM5 3739E"
  MIC: "0.5 µg/mL"
- molecule: "Cn1c(N)n[n+]2c(SCC3=C(C(=O)[O-])N4C(=O)C(NC(=O)C(=NOC(C(=O)O)c5ccc(O)c(O)c5)c5csc(N)n5)[C@H]4SC3)nc(N)cc12 (stereo partly shown)"
  test-target: "E. coli TEM5 3739E"
  MIC: "0.25 µg/mL"

Switching to the query record.
Inquiry: Report MIC for C[n+]1cc(CS(=O)(=O)O)c(N)nc1SCC1=C(C(=O)[O-])N2C(=O)C(NC(=O)/C(=N\OC(C(=O)O)c3ccc(O)c(O)c3)c3csc(N)n3)[C@H]2SC1 (stereo partly shown)
Reply text: 0.5 µg/mL

====

Catalogue of MIC values
# Test system: E. coli 10536
# assay-explanation: Minimum inhibitory concentration, agar dilution
# Format: cell-based
# condition-context: Escherichia coli; E. coli 10536; Muller-Hinton agar, 10^7 CFU per ml, 37° C., 20 hours; read-out: Minimum Inhibitory Concentration
# value in µg/mL; strip the unit string

Guide cases for MIC, answers given:
- compound: "Nc1nc(C(=NOC(C(=O)O)c2ccc(O)c(O)c2)C(=O)NC2C(=O)N3C(C(=O)[O-])=C(CSc4nc(N)c5c([n+]4N)CCC5)CSC23)cs1 (stereo not drawn)"
  test-target: "E. coli 10536"
  readout-unit: "µg/mL"
  MIC: 0.031
- compound: "Nc1cc[n+](N)c(SCC2=C(C(=O)[O-])N3C(=O)C(NC(=O)C(=NOC(C(=O)O)c4ccc(O)c(O)c4)c4csc(N)n4)C3SC2)n1 (stereo not drawn)"
  test-target: "E. coli 10536"
  readout-unit: "µg/mL"
  MIC: 0.016

Inquiry: Indicate the recorded MIC value for this compound: C[n+]1ccc(N)nc1SCC1=C(C(=O)[O-])N2C(=O)C(NC(=O)/C(=N\OC(C(=O)O)c3ccc(O)c(O)c3)c3csc(N)n3)[C@H]2SC1 (stereo partly drawn)
Reply text: 0.031
